# Test system: WSU-DLCL2 (B-Cell Non-Hodgkin's Lymphoma)
# experimental_protocol: combination Emax (second highest fraction inhibited in the dose matrix, 72 h); higher = more inhibition; extreme values may be limits of the assay
The reader will find reported combination Emax values listed item by item below.

{"compound": "COc1nnc2ccc(N3CCC(c4ccc(OCCN5CCN(C)C(=O)[C@H]5C)cc4)CC3)nn12 [AZD5153] + CCN(CCO)CCCOc1ccc2c(Nc3cc(CC(=O)Nc4cccc(F)c4)[nH]n3)ncnc2c1 [AZD2811] (first compound max 1 µM, 7x7, partner max 1 µM)", "combination Emax": 0.942}
{"compound": "COc1cc2ncnc(Nc3ccc(F)c(Cl)c3)c2cc1OCCCN1CCOCC1 [Gefitinib] + CC(C)n1c(=O)n(C)c2cnc3cc(F)c(-c4ccc(OCCCN5CCCCC5)nc4)cc3c21 [AZD1390] (first compound max 10 µM, 7x7, partner max 0.3 µM)", "combination Emax": 0.128}
{"compound": "COc1nnc2ccc(N3CCC(c4ccc(OCCN5CCN(C)C(=O)[C@H]5C)cc4)CC3)nn12 [AZD5153] + Cc1c2c(nn1C)CSCc1cc(n(C)n1)CSc1cc(c3ccccc3c1)OCCCc1c(C(=O)O)n(C)c3c-2c(Cl)ccc13 [AZD5991] (first compound max 1 µM, 7x7, partner max 1 µM)", "combination Emax": 1}
{"compound": "C[C@@H]1COCCN1c1cc(C2([S@](C)(=N)=O)CC2)nc(-c2ccnc3[nH]ccc23)n1 [AZD6738] + C1CC(C1)(C(=O)[O-])C(=O)[O-].N.N.[Pt+2] [Carboplatin] (first compound max 10 µM, 7x7, partner max 10 µM)", "combination Emax": 0.767}

----------
# Tested on: MEG-01 (Chronic Myelogenous Leukemia)
# experimental_protocol: combination Emax (second highest fraction inhibited in the dose matrix, 72 h); higher = more inhibition; extreme values may be limits of the assay
The reader will find reported combination Emax values listed item by item below.
measured_metric: combination Emax

{"molecule": "Cc1c2c(nn1C)CSCc1cc(n(C)n1)CSc1cc(c3ccccc3c1)OCCCc1c(C(=O)O)n(C)c3c-2c(Cl)ccc13 [AZD5991] + C[C@@H]1COCCN1C2=NC(=NC(=C2)C3(CC3)[S@](=N)(=O)C)C4=C5C=CNC5=NC=C4 [AZD6738] (first compound max 1 µM, 7x7, partner max 10 µM)", "measured_metric": "combination Emax", "measured_result": 0.931}
{"molecule": "NC1(C(=O)N[C@@H](CCO)c2ccc(Cl)cc2)CCN(c2ncnc3[nH]ccc23)CC1 [Capivasertib] + CC(C)n1c(=O)n(C)c2cnc3cc(F)c(-c4ccc(OCCCN5CCCCC5)nc4)cc3c21 [AZD1390] (first compound max 10 µM, 7x7, partner max 0.3 µM)", "measured_metric": "combination Emax", "measured_result": 0.256}
{"molecule": "CC1(C)CCC(CN2CCN(c3ccc(C(=O)NS(=O)(=O)c4ccc(NCC5CCOCC5)c([N+](=O)[O-])c4)c(Oc4cnc5[nH]ccc5c4)c3)CC2)=C(c2ccc(Cl)cc2)C1 [Venetoclax] + C[C@@H]1COCCN1C2=NC(=NC(=C2)C3(CC3)[S@](=N)(=O)C)C4=C5C=CNC5=NC=C4 [AZD6738] (first compound max 1 µM, 7x7, partner max 10 µM)", "measured_metric": "combination Emax", "measured_result": 0.883}
{"molecule": "CC(=O)c1c(C)c2cnc(Nc3ccc(N4CCNCC4)cn3)nc2n(C2CCCC2)c1=O [Palbociclib] + Cn1cnc2c(F)c(Nc3ccc(Br)cc3Cl)c(C(=O)NOCCO)cc21 [Selumetinib] (first compound max 10 µM, 7x7, partner max 10 µM)", "measured_metric": "combination Emax", "measured_result": 0.855}
{"molecule": "CC1(C)CCC(CN2CCN(c3ccc(C(=O)NS(=O)(=O)c4ccc(NCC5CCOCC5)c([N+](=O)[O-])c4)c(Oc4cnc5[nH]ccc5c4)c3)CC2)=C(c2ccc(Cl)cc2)C1 [Venetoclax] + COc1cc(Nc2ncc3c(n2)-c2ccc(Cl)cc2C(c2c(F)cccc2OC)=NC3)ccc1C(=O)O [Alisertib] (first compound max 1 µM, 7x7, partner max 10 µM)", "measured_metric": "combination Emax", "measured_result": 0.817}
{"molecule": "CN(CCO)CC[C@H](CSc1ccccc1)Nc1ccc(S(=O)(=O)NC(=O)c2ccc(N3CCC([C@@H](O)c4ccccc4-c4ccc(Cl)cc4)CC3)cc2)cc1S(=O)(=O)C(F)(F)F [AZD4320] + C1CN(CCC1(C(=O)N[C@@H](CCO)C2=CC=C(C=C2)Cl)N)C3=NC=NC4=C3C=CN4 [Capivasertib] (first compound max 1 µM, 7x7, partner max 3 µM)", "measured_metric": "combination Emax", "measured_result": 0.901}
